System: L1210 leukemia ip in BDF1 mice, survival T/C
Experiment: NCI In Vivo Anticancer Drug Screen. Data for tumor model L1210 Leukemia (intraperitoneal) in B6D2F1 (BDF1) mice
Settings: endpoint: mean survival time; dose: 10.0 mg/kg/injection; schedule: Q01DX001 (ip); vehicle: carboxymethylcellulose (CMC); higher = longer survival
Toxic doses and inconclusive results are not listed.
Measurement type: T/C

# input For the record CC(CC#N)c1ccc[nH]1 (centres undefined) , what value of T/C is listed for L1210 leukemia ip in BDF1 mice, survival T/C?
# output 111 % of control

# input Here is the next compound: CCc1ccc(C2=C(Cl)C(=O)C(c3ccc(CC)cc3)=C(Cl)C2=O)cc1
# output 100 % of control

# input Here is the next compound: Cc1cc(-c2ccccc2)c2ccc3c(-c4ccccc4)cc(C)nc3c2n1
# output 100 % of control

# input Here is the next compound: CC1(C)CCC(=NNC(N)=S)CC1
# output 97 % of control

---

Test system: L1210 leukemia ip in BDF1 mice, survival T/C
Experiment: NCI In Vivo Anticancer Drug Screen. Data for tumor model L1210 Leukemia (intraperitoneal) in B6D2F1 (BDF1) mice
Settings: endpoint: mean survival time; dose: 15.0 mg/kg/injection; schedule: Q01DX Z (ip); vehicle: saline; higher = longer survival
Toxic doses and inconclusive results are not listed.
Measurement type: T/C

Consider the reported T/C for these compounds:
INSERT INTO measurements (chemical_structure, observed_result) VALUES
  ('COCCCN=C(N)c1ccc(NC(=O)c2ccc(C(=O)Nc3ccc(C(N)=NCCCOC)cc3)c(Cl)c2)cc1', '89 % of control'),
  ('C=NN=C(N)N', '100 % of control'),
  ('NC(N)=N/N=C/C(=N\N=C(N)N)C(F)(F)F', '102 % of control');

Turning now to a further compound:
# input Recorded T/C for Cc1cc(C(=O)Nc2ccc(NC3=NCCN3)cc2)c(C)cc1C(=O)Nc1ccc(NC2=NCCN2)cc1 , please?
# output 108 % of control

---

Test system: L1210 leukemia ip in BDF1 mice, survival T/C
Experiment: NCI In Vivo Anticancer Drug Screen. Data for tumor model L1210 Leukemia (intraperitoneal) in B6D2F1 (BDF1) mice
Details: endpoint: mean survival time; dose: 400.0 mg/kg/injection; schedule: Q01DX009 (ip); vehicle: other; higher = longer survival
Toxic doses and inconclusive results are not listed. Square brackets hold non-standard residues; d marks the D form. Peptide text beside a SMILES is read from it. * marks the point of attachment. ξ: configuration not given here. Tos = Cc1ccc(S(=O)(=O)*)cc1; ξY = NC(Cc1ccc(O)cc1)C(=O)O
Measurement type: T/C

INSERT INTO results (compound, system_tested, observed_result) VALUES
  ('CCN(CC)C(=S)S', 'L1210 leukemia ip in BDF1 mice, survival T/C', '102 % of control'),
  ('CCCCCCC(=O)/C=C/c1ccccc1Cl', 'L1210 leukemia ip in BDF1 mice, survival T/C', '93 % of control'),
  ('Cc1ccc(S(=O)(=O)NCC(=O)NC(Cc2ccc(O)cc2)C(=O)O)cc1 (stereo not drawn) (Tos-Gly-[ξY]-OH)', 'L1210 leukemia ip in BDF1 mice, survival T/C', '104 % of control'),
  ('CN(C)c1ccc(CC2Cc3ccccc3C2=O)cc1 (stereo not drawn)', 'L1210 leukemia ip in BDF1 mice, survival T/C', '91 % of control'),
  ('O=C1OCCC1C(=O)C(O)(C(F)(F)F)C(F)(F)F (stereo not drawn)', 'L1210 leukemia ip in BDF1 mice, survival T/C', '94 % of control'),
  ('Cc1ccc(Nc2nnc(N=Nc3ccccc3)s2)cc1C', 'L1210 leukemia ip in BDF1 mice, survival T/C', '98 % of control');

# input For the record CS(=O)(=O)N(CC(=O)O)Cc1ccc(F)cc1 , what value of T/C is listed for L1210 leukemia ip in BDF1 mice, survival T/C?
# output 97 % of control

# input Here is the next compound: CCN(Cc1ccccc1)C(=O)Nc1cccc(Cl)c1
# output 105 % of control

---

Test system: L1210 leukemia ip in BDF1 mice, survival T/C
Experiment: NCI In Vivo Anticancer Drug Screen. Data for tumor model L1210 Leukemia (intraperitoneal) in B6D2F1 (BDF1) mice
Conditions: endpoint: mean survival time; dose: 100.0 mg/kg/injection; schedule: Q04DX003 (ip); vehicle: other; higher = longer survival
Toxic doses and inconclusive results are not listed.
Measurement type: T/C

Consider the reported T/C for these molecules:
INSERT INTO measurements (molecule, observed_result) VALUES
  ('O=C(c1ccc([N+](=O)[O-])cc1)c1ccc(O)cc1O', '100 % of control'),
  ('CC(C)CC(=O)Nc1ccccc1', '98 % of control'),
  ('Oc1ccccc1C=Nc1cccc2c(N=Cc3ccccc3O)cccc12', '86 % of control'),
  ('CNC(=O)N(C(C)C)C1CCCCC1', '102 % of control'),
  ('O=C1NN=C2CCCCC12 (stereo not drawn)', '107 % of control'),
  ('O=C(O)C(Cc1ccccc1)NC(=O)C(F)(F)F (stereo not drawn)', '90 % of control'),
  ('Cc1ccc(S(=O)(=O)OCC2CC3CCC2C3)cc1 (stereo not drawn)', '91 % of control');

Turning now to a further molecule:
# input Recorded T/C for CS(=O)(=O)N(CC(=O)O)Cc1ccc(Cl)cc1 , please?
# output 102 % of control

---

Tested on: L1210 leukemia ip in BDF1 mice, survival T/C
Assay: NCI In Vivo Anticancer Drug Screen. Data for tumor model L1210 Leukemia (intraperitoneal) in B6D2F1 (BDF1) mice
Conditions: endpoint: mean survival time; dose: 25.0 mg/kg/injection; schedule: Q04DX002 (ip); vehicle: saline with Tween-80; higher = longer survival
Inconclusive results and toxic doses are left out.
Listing: T/C of selected molecules

Consider the reported T/C for these molecules:
INSERT INTO measurements (molecule, system_tested, observed_result) VALUES
  ('COc1ccc(C2=CC(c3ccccc3)C(c3ccccc3)C(=O)N2)cc1 (stereo unspecified)', 'L1210 leukemia ip in BDF1 mice, survival T/C', '92 % of control'),
  ('O=C(O)c1cccc([N+](=O)[O-])c1O', 'L1210 leukemia ip in BDF1 mice, survival T/C', '95 % of control'),
  ('S=P(c1ccccc1)(N1CC1)N1CC1', 'L1210 leukemia ip in BDF1 mice, survival T/C', '110 % of control'),
  ('c1cc[c]([Sn]([S]c2ccccn2)([c]2ccccc2)[c]2ccccc2)cc1', 'L1210 leukemia ip in BDF1 mice, survival T/C', '108 % of control'),
  ('CC([NH-])C(=O)O.CC([NH-])C(=O)O.CC([NH-])C(=O)O.[Co+3] (stereo unspecified)', 'L1210 leukemia ip in BDF1 mice, survival T/C', '115 % of control');

# input For the record N#C[CH2][Sn]([c]1ccccc1)([c]1ccccc1)[c]1ccccc1 , what value of T/C is listed for L1210 leukemia ip in BDF1 mice, survival T/C?
# output 96 % of control

---

Test system: L1210 leukemia ip in BDF1 mice, survival T/C
Experiment: NCI In Vivo Anticancer Drug Screen. Data for tumor model L1210 Leukemia (intraperitoneal) in B6D2F1 (BDF1) mice
Conditions: endpoint: mean survival time; dose: 100.0 mg/kg/injection; schedule: Q04DX002 (ip); vehicle: saline; higher = longer survival
Toxic doses and inconclusive results are not listed.
Measurement type: T/C

INSERT INTO results (molecule, observed_result) VALUES
  ('CC1CN=C(c2ccc(O)cc2)S1 (configuration not stated)', '96 % of control'),
  ('CCCC(OP(=S)(OCC(Cl)CC)OCC(Cl)CC)P(=O)(OCC(Cl)CC)OCC(Cl)CC (configuration not stated)', '106 % of control'),
  ('CC(C)(C)C(=O)CC(=O)C(C)(C)C.CC(C)(C)C(=O)CC(=O)C(C)(C)C.CC(C)(C)C(=O)CC(=O)C(C)(C)C.[Sm]', '92 % of control'),
  ('O=C1NCCN1', '103 % of control'),
  ('Cc1ccc(S(=O)(=O)OC2C3OC(=S)OCC3OC3OC(C)(C)OC32)cc1 (configuration not stated)', '107 % of control');

# input Recorded T/C for Cc1ncn[nH]1 , please?
# output 96 % of control

# input Here is the next molecule: Cc1ccc(C2C(C(=O)N3CCN(C)CC3)C2c2ccccc2)cc1 (configuration not stated)
# output 95 % of control

# input Here is the next molecule: NC(=S)N1CCOCC1
# output 97 % of control

# input Here is the next molecule: O=C(CCCc1ccc(N(CCCl)CCCl)cc1)OCCc1ccccc1
# output 124 % of control

# input Here is the next molecule: C=C1C(=O)OC2C1C(O)CC(C)(O)C1CC=C(C)C21 (configuration not stated)
# output 102 % of control

# input Here is the next molecule: N=c1c2c(N)nc(N)nc2c2ccccc2n1O
# output 104 % of control

# input Here is the next molecule: Cc1cncn1CC(=O)c1ccccc1
# output 103 % of control
